Hi there, I'd appreciate the recorded pEC50 for every entry that follows.
- Tested on: Chikungunya virus
- PROTOCOL TEXT: Antiviral activity against Chikungunya virus Indian Ocean strain 899 infected in African green monkey Vero cells assessed as inhibition of virus-induced cytopathic effect after 7 days by MTS/PMS method
- Assay type: functional, cell-based
- COND: Indian Ocean strain 899, Vero, 168 h
Scale: pEC50 equals -log10([C]), with [C] in mol/L.

# query: pEC50 | item Cc1nc2c(nnn2-c2cccc(OC(C)C)c2)c(=O)[nH]1 | system: Chikungunya virus
4.92

Query for Chikungunya virus: what pEC50 does the record show for CC(=O)c1cccc(-n2nnc3c(=O)[nH]c(C)nc32)c1 ?
4.72

Lab note: need pEC50 for CC(=O)Nc1cccc(-n2nnc3c(=O)[nH]c(C)nc32)c1 on Chikungunya virus, anyone have it?
3.50

# value lookup — system Chikungunya virus, readout pEC50, item CC(=O)c1ccc(-n2nnc3c(=O)[nH]c(C)nc32)cc1
3.49

Recall the recorded pEC50 for Cc1nc2c(nnn2Cc2cccc(OC(C)C)c2)c(=O)[nH]1 with Chikungunya virus and state it.
3.78

Find the measured pEC50: item CCOC(=O)c1cccc(-n2nnc3c(=O)[nH]c(C)nc32)c1 , target or system Chikungunya virus.
3.69

Could you share what pEC50 was measured for CC(C)Oc1cccc(-n2nnc3c(=O)[nH]c(CC#N)nc32)c1 , tested on Chikungunya virus?
3.94

Identify the measured pEC50 of CC(=O)c1cccc(-n2nnc3c(N)nc(C)nc32)c1 for Chikungunya virus.
3.65

Entry Cc1nc2c(nnn2-c2cccc(C#N)c2)c(=O)[nH]1 , system Chikungunya virus: what pEC50 was measured?
3.88

Form field: pEC50 recorded for CC(C)Oc1cccc(-n2nnc3c(=O)[nH]c(-c4ccncc4)nc32)c1 with Chikungunya virus (enter value)
4.12

Write down the reported pEC50 of CC(C)Oc1cccc(-n2nnc3c(=O)[nH]c(-c4ccccc4)nc32)c1 , test system: Chikungunya virus.
3.69

Field: pEC50 (Chikungunya virus). Entry: CCc1nc2c(nnn2-c2cccc(OC(C)C)c2)c(=O)[nH]1
5.52

Test system Chikungunya virus; read-out pEC50; what value for COc1cccc(-n2nnc3c(=O)[nH]c(C)nc32)c1 ?
4.55

Checklist item: pEC50 tested on Chikungunya virus, entry Cc1nc2c(nnn2-c2cccc(Cl)c2)c(=O)[nH]1 , value?
4.49

Given the entry CC(=O)c1cccc(-n2cnc3c(=O)[nH]c(C)nc32)c1 , what pEC50 was observed with Chikungunya virus?
3.90

GET /values?readout=pEC50&system=Chikungunya virus&item= CC(C)Oc1cccc(-n2nnc3c(=O)[nH]c(C(C)C)nc32)c1
3.55

Requested read-out pEC50, target or system Chikungunya virus, entry COc1ccccc1-n1nnc2c(=O)[nH]c(C)nc21
3.46

Lab note: need pEC50 for CCCOc1ccc(-n2nnc3c(=O)[nH]c(C)nc32)cc1 on Chikungunya virus, anyone have it?
3.77

# get_value(readout= pEC50, system= Chikungunya virus) for CC(C)Oc1cccc(-n2nnc3c(=O)[nH]c(C(F)(F)F)nc32)c1
4.17

Value wanted: pEC50 (Chikungunya virus) of entry Cc1nc2c(nnn2-c2cccc(C(=O)c3ccccc3)c2)c(=O)[nH]1
4.64

###

- PROTOCOL TEXT: Selectivity index, ratio of CC50 for African green monkey Vero cells to EC50 for Chikungunya virus Indian Ocean strain 899 infected in African green monkey Vero cells
- Assay type: toxicity, cell-based
- COND: read-out: Ratio CC50/EC50
MEASURE: selectivity ratio

What value of measured selectivity ratio is listed for CCc1nc2c(nnn2-c2cccc(OC(C)C)c2)c(=O)[nH]1 ?
> 222

###

- PROTOCOL TEXT: Cytotoxicity against non-infected African green monkey Vero cells after 7 days by MTS/PMS method
- Type: cell-based
- COND: chlorocebus sabaeus
Exercise: state measured CC50 at 168 h for each of the compounds provided.

Looking for the measured CC50 at 168 h of CNc1nc(C)nc2c1nnn2-c1cccc(C(C)=O)c1 , can you help?
514 µM

Name the reported CC50 at 168 h value associated with the compound CC(=O)c1cccc(-n2cnc3c(=O)[nH]c(C)nc32)c1
491 µM

Fill in the blank: the reported CC50 at 168 h of CC(C)Oc1cccc(-n2nnc3c(=O)[nH]c(=O)[nH]c32)c1 is ____.
> 696 µM

Fill blank: measured CC50 at 168 h of the compound Cc1nc2c(nnn2-c2cccc(C#N)c2)c(=O)[nH]1 is ____.
> 793 µM

GET /values?readout=CC50 at 168 h&item= Cc1nc2c(nnn2-c2cccc(OC(C)C)c2)c(=O)[nH]1
> 704 µM

Please look up its CC50 at 168 h: Cc1nc2c(nnn2Cc2cccc(OC(C)C)c2)c(=O)[nH]1
> 872 µM

Dear colleague, I am looking for the recorded CC50 at 168 h of the following compound: CC(C)Oc1cccc(-n2nnc3c(=O)[nH]c(C(F)(F)F)nc32)c1
104 µM

If you can, please state the reported CC50 at 168 h value of Cc1nc2c(nnn2-c2cccc(Cl)c2)c(=O)[nH]1 .
> 764 µM

###

- PROTOCOL TEXT: Cytotoxicity against non-infected African green monkey Vero cells after 7 days by MTS/PMS method
- Format: cell-based
- COND: chlorocebus sabaeus
MEASURE: CC50 at 168 h (µM)
Give the value, in units of µM, as a plain number.

Given CC(C)Oc1cccc(-n2nnc3c(=O)[nH]c(CC#N)nc32)c1 , state its recorded CC50 at 168 h.
215

Which CC50 at 168 h value belongs to CCCOc1ccc(-n2nnc3c(=O)[nH]c(C)nc32)cc1 ?
594

So what does the record say about CC50 at 168 h for CC(=O)Nc1cccc(-n2nnc3c(=O)[nH]c(C)nc32)c1 ?
206

GET /values?readout=CC50 at 168 h&item= CC(C)Oc1cccc(-n2nnc3c(=O)[nH]c(-c4ccncc4)nc32)c1
82

Field request: CC50 at 168 h | item: Cc1nc2c(nnn2-c2cccc(N(C)C)c2)c(=O)[nH]1
538

###

- System: Chikungunya virus
- PROTOCOL TEXT: Antiviral activity against Chikungunya virus Indian Ocean strain 899 infected in African green monkey Vero cells assessed as inhibition of virus-induced cytopathic effect after 7 days by MTS/PMS method
- Type: functional, cell-based
- COND: Indian Ocean strain 899, Vero, 168 h
MEASURE: EC50

Entry under review: CC(=O)c1cccc(-n2c(C)nc3c(=O)[nH]c(C)nc32)c1 . Reported EC50?
> 440 µM

Would you kindly share the measured EC50 for Cc1nc2c(nnn2-c2ccc3c(c2)OCO3)c(=O)[nH]1 ?
> 461 µM

If you can, please state the reported EC50 value of CC(=O)c1cccc(-n2nnc3c(=O)[nH]cnc32)c1 .
> 490 µM

# input compound: CNc1nc(C)nc2c1nnn2-c1cccc(C(C)=O)c1 ; wanted: its EC50
> 443 µM

Look at this compound and give its reported EC50. CCCc1nc2c(nnn2-c2cccc(OC(C)C)c2)c(=O)[nH]1
> 399 µM

Requested read-out: EC50. Entry: CC(C)Oc1cccc(-n2nnc3c(=O)[nH]c(=O)[nH]c32)c1
> 435 µM

GET /values?readout=EC50&item= COc1nc(C)nc2c1nnn2-c1cccc(C(C)=O)c1
> 441 µM

Reported EC50 for CC(=O)c1cccc(-n2nnc3c(Cl)nc(C)nc32)c1 : what is it?
> 174 µM

Any idea what its EC50 is? The compound is Cc1nc2c(nnn2-c2cccc(N(C)C)c2)c(=O)[nH]1
> 370 µM

// EC50 lookup, key: Cc1nc2c(nnn2-c2cccc(C(=O)O)c2)c(=O)[nH]1
> 399 µM

Consider the compound shown here: CC(=O)c1cccc(-n2nnc3c(=O)n(C)c(C)nc32)c1 What is its recorded EC50?
> 441 µM

###

Assignment: determine reported CC50 at 168 h for the given molecules.
- PROTOCOL TEXT: Cytotoxicity against non-infected African green monkey Vero cells after 7 days by MTS/PMS method
- Assay type: cell-based
- COND: chlorocebus sabaeus

// CC50 at 168 h lookup, key: Cc1nc2c(nnn2-c2ccc3c(c2)OCO3)c(=O)[nH]1
> 737 µM

Form field: reported CC50 at 168 h of CC(C)Oc1cccc(-n2nnc3c(=O)[nH]c(C(C)C)nc32)c1
> 638 µM

Tell me the measured CC50 at 168 h of COc1ccccc1-n1nnc2c(=O)[nH]c(C)nc21 , please.
> 777 µM

Would you kindly share the measured CC50 at 168 h for CC(=O)c1cccc(-n2nnc3c(=O)n(C)c(C)nc32)c1 ?
> 706 µM

# lookup: CC50 at 168 h of CC(=O)c1cccc(-n2nnc3c(=O)[nH]cnc32)c1
> 784 µM

What value of CC50 at 168 h has been reported for the following molecule? Cc1nc2c(nnn2-c2cccc(C(=O)O)c2)c(=O)[nH]1
> 638 µM

Need CC50 at 168 h, item CCc1nc2c(nnn2-c2cccc(OC(C)C)c2)c(=O)[nH]1
> 668 µM
